tested on: mouse; set-up: species or system male CF-1 mice; unit not given here; settings: in vivo
MOUSE AC50 reference
Give a plain numeric answer without units written out.

Worked cases, MOUSE AC50 given:
>>> readout_value("COC(F)(F)C(F)C(F)(F)F (stereo not drawn)")
3.9
>>> readout_value("FC(F)OC(F)C(F)(F)C(F)(F)F (stereo not drawn)")
4.3
>>> readout_value("COC(C(F)F)C(F)F")
1.4
>>> readout_value("COC(C(F)F)C(F)(F)F (stereo not drawn)")
1.5
>>> readout_value("FC(F)OC(C(F)F)C(F)F")
0.64

Just so you know, measured MOUSE AC50 for FC(F)OC(C(F)(F)F)C(F)(F)F came out at 2.5

Kindly note the recorded MOUSE AC50 for FC(F)OC(C(F)F)C(F)(F)F (stereo not drawn) , which is 0.84

Where do the numbers come from? From patent US3943256A.
